tested on: HSV-1; test: Antiviral activity, HSV-1 in Vero cells, plaque method; format: cell-based; conditions: Human alphaherpesvirus 1, 20 hours, 90% inhibition of plaque formation
readout name: EC90

Here are 2 compounds together with their reported answers.
Cc1c(NC(=O)CCC2CCCCC2)ccc2nc(NC(C)(C)C(=O)N(C)CCc3ccccn3)oc(=O)c12: 11.3 µM
CCCCc1ccc(C(=O)NCCC(=O)Nc2ccc3nc(NC(C)(C)C(=O)N(C)CCc4ccccn4)oc(=O)c3c2C)cc1: > 12.5 µM

Now look at this entry.
Ask | Let me know recorded EC90 for "Cc1c(NC(=O)OC(C)(C)C)ccc2nc(N3CCCC[C@H]3C(=O)N(C)CCc3cccnc3)oc(=O)c12" , thanks.
Reply | > 12.5 µM

* * *

Below are compounds with their pIC50 as measured on UniProtKB P10210.
Sequence (P10210 1-247): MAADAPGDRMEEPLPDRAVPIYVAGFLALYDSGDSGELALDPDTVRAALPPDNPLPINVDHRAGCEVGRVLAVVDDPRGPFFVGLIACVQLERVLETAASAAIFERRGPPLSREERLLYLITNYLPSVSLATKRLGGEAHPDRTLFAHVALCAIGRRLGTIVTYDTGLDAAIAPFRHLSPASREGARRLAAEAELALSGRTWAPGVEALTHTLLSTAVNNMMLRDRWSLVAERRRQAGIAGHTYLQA
Numbers only, as −log10 of the molar value.

// solved cases for pIC50 follow
Cc1c(NC(=O)OC(C)(C)C)ccc2nc(N(C)[C@@H](C)C(=O)NCCc3ccccn3)oc(=O)c12 [Compound No.74]: 5.82
Cc1c(NC(=O)OC(C)(C)C)ccc2nc(NC3(C(=O)N(C)Cc4cccnc4)CCCC3)oc(=O)c12 [Compound No.119]: 6.15

Then there is this compound:
Ask | Determine from records and report pIC50 for Cc1c(NC(=O)c2ccc(-c3ccccc3)cc2)ccc2nc(NC(C)(C)C(=O)N(C)CCc3ccccn3)oc(=O)c12 [Compound No.169]
Reply | 6.00

* * *

tested on: HSV-1; experiment: Antiviral activity, HSV-1 in Vero cells, plaque method; assay type: cell-based; details: Human alphaherpesvirus 1, 20 hours, 90% inhibition of plaque formation
readout name: EC90

Cc1c(NC(=O)OC(C)(C)C)ccc2nc(N3C[C@H](OCc4ccccc4)C[C@H]3C(=O)N(C)CCc3ccccn3)oc(=O)c12: 5.9 µM

Hi, could you look up EC90 for each item in my list?
1. Cc1c(NC(=O)c2ccccc2OC(F)(F)F)ccc2nc(NC(C)(C)C(=O)N(C)CCc3ccccn3)oc(=O)c12
2. Cc1c(NC(=O)OC(C)(C)C)ccc2nc(N3CCC[C@H]3C(=O)N(C)CCc3ccncc3)oc(=O)c12
3. Cc1c(NC(=O)OC(C)(C)C)ccc2nc(NC3(C(=O)N(C)Cc4cccnc4)CC3)oc(=O)c12

Reply |
> 12.5 µM
> 12.5 µM
> 12.5 µM

* * *

tested on: HSV-1; assay: Antiviral activity, HSV-1 in Vero cells, plaque method; assay type: cell-based; conditions: Human alphaherpesvirus 1, 20 hours, 90% inhibition of plaque formation
Consider the following compounds; for each one, report its EC90.

Sample records with EC90:
Cc1c(NC(=O)OC(C)(C)C)ccc2nc(N(C)[C@@H](C)C(=O)NCc3ccncc3)oc(=O)c12: > 12.5 µM
Cc1c(NC(=O)OC(C)(C)C)ccc2nc(NC3(C(=O)N(C)Cc4cccnc4)CCCC3)oc(=O)c12: > 12.5 µM

// next item, EC90 requested
Ask | Read the entry "Cc1c(NC(=O)c2cccs2)ccc2nc(NC(C)(C)C(=O)N(C)CCc3ccccn3)oc(=O)c12" and write its reported EC90.
Reply | > 12.5 µM

* * *

Tested on: Vero cells
Test: Cytotoxicity, Vero cells, Alamar Blue
Format: cell-based
Conditions: 25 μM, 20 hours
Protocol: An Assay Method for Cytotoxicity The Vero cells were sown on a 96-well plate and then cultured overnight. The culture supernatant was removed, and 200 μl of 2% FBS-DMEM comprising 25 μM of the test compound was added. In this case, a substance to which 2% FBS-DMEM not comprising any test compound had been added was determined as a control. These cells were incubated in the presence of 5% CO2 at 37° C. for 20 hours. […]
readout name: Cell viability (% of control) (%)
Give bare numbers, in %.

Sample records with Cell viability (% of control):
CCCCCCCC(=O)Nc1ccc2nc(NC(C)(C)C(=O)N(C)CCc3ccccn3)oc(=O)c2c1C [Compound No.196]: 86.5
CCCc1ccc(C(=O)Nc2ccc3nc(NC(C)(C)C(=O)N(C)CCc4ccccn4)oc(=O)c3c2C)cc1 [Compound No.166]: 15.9
Cc1c(NC(=O)OC(C)(C)C)ccc2nc(N[C@@H](C)C(=O)N(C)Cc3ccccn3)oc(=O)c12 [Compound No.58]: 105.0
Cc1c(NC(=O)OC(C)(C)C)ccc2nc(N3CCC[C@H]3C(=O)NCc3cccnc3)oc(=O)c12 [Compound No.87]: 92.4
Cc1c(NC(=O)c2ccccc2Br)ccc2nc(NC(C)(C)C(=O)N(C)CCc3ccccn3)oc(=O)c12 [compound 199]: 56.9

Each compound below has a reported value. Please supply its Cell viability (% of control).
1. Cc1c(NC(=O)OC(C)(C)C)ccc2nc(N(C)[C@@H](C)C(=O)N(C)CCc3ccccn3)oc(=O)c12 [Compound No.76]
2. Cc1c(NC(=O)OC(C)(C)C)ccc2nc(N[C@H](C(=O)NCCc3ccccn3)C(C)C)oc(=O)c12 [Compound No.26]
3. Cc1c(NC(=O)OC(C)(C)C)ccc2nc(N[C@@H](Cc3ccccc3)C(=O)N(C)CCc3ccccn3)oc(=O)c12 [Compound No.21]
4. Cc1c(NC(=O)c2ccc(CCl)cc2)ccc2nc(NC(C)(C)C(=O)N(C)CCc3ccccn3)oc(=O)c12 [Compound No.171]
5. Cc1c(NC(=O)OC(C)(C)C)ccc2nc(N3C[C@H](OCc4ccccc4)C[C@H]3C(=O)NCc3ccccn3)oc(=O)c12 [Compound No.109]
6. Cc1c(NC(=O)OC(C)(C)C)ccc2nc(N(C)[C@@H](Cc3ccccc3)C(=O)NCCc3ccccn3)oc(=O)c12 [Compound No.81]
7. Cc1c(NC(=O)OC(C)(C)C)ccc2nc(N(C)[C@@H](C)C(=O)N(C)CCc3cccnc3)oc(=O)c12 [Compound No.77]
8. Cc1c(NC(=O)OC(C)(C)C)ccc2nc(N3CCC[C@H]3C(=O)N(C)Cc3ccccn3)oc(=O)c12 [Compound No.90]

Reply |
87.9
107.0
53.2
16.1
58.5
49.7
94.4
93.6

Look at each compound and report its Cell viability (% of control).
1. Cc1c(NC(=O)OC(C)(C)C)ccc2nc(N3CCCC[C@H]3C(=O)N(C)CCc3cccnc3)oc(=O)c12 [Compound No.107]
2. Cc1c(NC(=O)c2ccc(Cl)cc2)ccc2nc(NC(C)(C)C(=O)N(C)CCc3ccccn3)oc(=O)c12 [Compound No.153]

Reply |
45.4
48.6
